For each of the binders below, state its OD450.
- Assayed target: T1, human MSLN-R3-3 polypeptide (human)
- T1 construct: Part of region R3 of human MSLN; also called hMSLN-R3-3; human MSLN-R3-3 protein
- Protocol notes: ELISA, coated antigen, antibody 100 nM
The answer should be a number; do not append a unit.

[ask] For the binder shown here, S009-F4-127.10 chimeric antibody (antibody, human IgG1, kappa, V domains shown, Human-murine chimeric antibody, human IgG1/kappa constant regions) VH: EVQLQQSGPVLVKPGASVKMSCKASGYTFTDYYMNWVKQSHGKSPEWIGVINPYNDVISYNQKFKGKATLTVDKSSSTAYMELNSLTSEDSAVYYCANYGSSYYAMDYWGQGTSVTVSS VL: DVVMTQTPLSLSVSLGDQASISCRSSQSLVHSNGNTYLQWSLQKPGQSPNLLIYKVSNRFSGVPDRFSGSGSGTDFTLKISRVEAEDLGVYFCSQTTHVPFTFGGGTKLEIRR , give the reported OD450.
[reply] 0.14

[ask] For the binder shown here, S009-F6-62.5 chimeric antibody (antibody, human IgG1, kappa, V domains shown, Human-murine chimeric antibody, human IgG1/kappa constant regions) VH: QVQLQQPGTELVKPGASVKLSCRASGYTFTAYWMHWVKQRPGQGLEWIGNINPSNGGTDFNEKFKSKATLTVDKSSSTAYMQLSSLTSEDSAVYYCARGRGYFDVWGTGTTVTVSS VL: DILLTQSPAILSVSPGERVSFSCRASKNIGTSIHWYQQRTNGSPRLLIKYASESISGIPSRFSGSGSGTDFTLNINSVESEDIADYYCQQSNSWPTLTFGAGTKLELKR , give the reported OD450.
[reply] 0.09

[ask] For the binder shown here, S009-F4-94.15 chimeric antibody (antibody, human IgG1, kappa, V domains shown, Human-murine chimeric antibody: murine VH/VL on human IgG1 heavy and kappa light constant regions) VH: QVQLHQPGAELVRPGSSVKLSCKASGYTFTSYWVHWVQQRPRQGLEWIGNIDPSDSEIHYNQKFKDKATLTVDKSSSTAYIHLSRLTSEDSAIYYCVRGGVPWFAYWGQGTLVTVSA VL: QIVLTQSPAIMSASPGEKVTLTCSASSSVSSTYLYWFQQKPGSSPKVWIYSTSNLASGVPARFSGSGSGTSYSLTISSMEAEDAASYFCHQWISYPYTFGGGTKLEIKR , give the reported OD450.
[reply] 0.09

[ask] For the binder shown here, S009-F6-76.1 chimeric antibody (antibody, human IgG1, kappa, V domains shown, Human-murine chimeric antibody, human IgG1/kappa constant regions) VH: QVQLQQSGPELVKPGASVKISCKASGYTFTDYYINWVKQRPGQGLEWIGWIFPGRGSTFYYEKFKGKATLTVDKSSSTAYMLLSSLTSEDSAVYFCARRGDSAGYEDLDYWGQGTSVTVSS VL: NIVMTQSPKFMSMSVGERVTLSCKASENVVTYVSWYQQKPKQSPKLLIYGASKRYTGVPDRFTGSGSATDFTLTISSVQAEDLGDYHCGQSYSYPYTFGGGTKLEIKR , give the reported OD450.
[reply] 0.07
